Attribution: patent US20220259593A1

# Test system: K562 CRISPRi cells
# Test Method Notes: Perturb-seq pooled growth measurement (sgRNA counts, growth phenotype γ, relative activity)
# Format: cell-based, human
# Conditions: γ relative to perfectly matched sgRNA (_00) of the same gene, day 5
Readout Kind: relative_activity_day5
Form: value (number only, do not type unit).

Exam item: relative_activity_day5 for RPL9_ + _39460483.23-P1P2_01 (guide GGATGATTCTGTGCTCGTGG; listed as DNA, chemistry not fully specified) ?
Marked response: 0.7661

Exam item: Note, next up: POLR2H_ + _184081251.23-P1P2_07 (guide GGGGCCACGAGTGCAGCAGA; listed as DNA, chemistry not fully specified)
Marked response: 0.1648

Exam item: Note, next up: POLR1D_ + _28196016.23-P1_01 (guide GGGAAGCCAGGACCGACCGA; listed as DNA, chemistry not fully specified)
Marked response: 0.9145
